Data provenance is ChEMBL document CHEMBL4715835.

methodDescription: Toxicity in human Caco-2 cells assessed as reduction in cell number after 48 hrs by Hoechst 33342 staining based assay
measuredQuantity: log10 IC50 at 48 h (log10 of the value in µM)
Parameter value (number): base-10 log of IC50 at 48 h in µM.

Here is how some compounds turned out for log10 IC50 at 48 h.
CCCCCCCC/C=C\CCCCCCC[C@H](O)C[C@@H]1C=CCCN1C    0.78
CCCCCCCC/C=C\CCCCCCC[C@H](C[C@@H]1C=CCCN1C)OC(C)=O    0.95
CCCCCCCCCCCCCCCCCCC[C@H](O)C[C@@H]1C=CCCN1C    1.15
CCCCCCCCCCCCCCCCC[C@H](O)C[C@@H]1C=CCCN1C    1.20
CCCCCCCCCCCCCCCCC[C@@H](C[C@@H]1C=CCCN1C)OC(C)=O    0.95

Task item: Please supply the value of reported log10 IC50 at 48 h for the item CCCCCCCC/C=C\CCCCCCC[C@@H](O)C[C@@H]1C=CCCN1C
Reply: 0.90

Task item: Please supply the value of reported log10 IC50 at 48 h for the item CCCCCCCCCCCCCCCCCCC[C@H](C[C@@H]1C=CCCN1C)OC(C)=O
Reply: 1.23

Task item: Please supply the value of reported log10 IC50 at 48 h for the item COc1cccc2c1C(=O)c1c(O)c3c(c(O)c1C2=O)C[C@@](O)(C(=O)CO)C[C@@H]3O[C@H]1C[C@H](N)[C@H](O)[C@H](C)O1
Reply: -0.77

Task item: Please supply the value of reported log10 IC50 at 48 h for the item CCCCCCCCCCCCCCCCC[C@H](C[C@@H]1C=CCCN1C)OC(C)=O
Reply: 0.95

Task item: Please supply the value of reported log10 IC50 at 48 h for the item CCCCCCCCCCCCCCCCC[C@@H](O)C[C@@H]1C=CCCN1C
Reply: 1.32

* * *

Test system: MDA-MB-435
methodDescription: Toxicity in human MDA-MB-435 cells assessed as mortality at 10 uM measured after 24 hrs by MTT assay relative to control
Assay type: cell-based
conditionNotes: mda-mb-435, 24 h
The label is Criterion met for mortality below 20% and Criterion not met for mortality equal to or exceeding 20%.

Known results for compounds:
CCCCCCCCCCCCCCCCCC(Cc1cccc[n+]1C)OC.Cc1ccc(S(=O)(=O)[O-])cc1 (stereo not given)    Criterion not met
CCCCCCCCCCCCCCCCC[C@@H](O)C[C@@H]1C=CCCN1C    Criterion not met

Task item: Dear reviewer, please state whether CCCCCCCCCCCCCCCCCC(O)Cc1ccccn1 (stereo not given) has mortality strictly beneath 20%.
Reply: Criterion met

Task item: Dear reviewer, please state whether CCCCCCCCCCCCCCCCCC(Cc1ccccn1)OC (stereo not given) has mortality strictly beneath 20%.
Reply: Criterion met

Task item: Dear reviewer, please state whether CCCCCCCCCCCCCCCCC[C@H](O)C[C@@H]1C=CCCN1C has mortality strictly beneath 20%.
Reply: Criterion met

Task item: Dear reviewer, please state whether CCCCCCCC/C=C\CCCCCCC[C@H](C[C@@H]1C=CCCN1C)OC(C)=O has mortality strictly beneath 20%.
Reply: Criterion not met

Task item: Dear reviewer, please state whether CCCCCCCCCCCCCCCCC[C@H](C[C@@H]1C=CCCN1C)OC(C)=O has mortality strictly beneath 20%.
Reply: Criterion not met

Task item: Dear reviewer, please state whether CCCCCCCCCCCCCCCCC[C@@H](O)C[C@@H]1CCCCN1C has mortality strictly beneath 20%.
Reply: Criterion not met

* * *

# IC50 at 48 h annotations
methodDescription: Toxicity in human Huh-7 cells assessed as reduction in cell number after 48 hrs by Hoechst 33342 staining based assay
Reply with just the number (in µM).

Here is how some compounds turned out for IC50 at 48 h.
CCCCCCCC/C=C\CCCCCCC[C@H](C[C@@H]1C=CCCN1C)OC(C)=O    10
CCCCCCCC/C=C\CCCCCCC[C@@H](O)C[C@@H]1C=CCCN1C    10
CCCCCCCCCCCCCCCCC[C@H](C[C@@H]1C=CCCN1C)OC(C)=O    22

Task item: Please supply the value of reported IC50 at 48 h for the item CCCCCCCC/C=C\CCCCCCC[C@H](O)C[C@@H]1C=CCCN1C
Reply: 24

* * *

# mortality annotations
System: MDA-MB-435
methodDescription: Toxicity in human MDA-MB-435 cells assessed as mortality at 1 uM measured after 24 hrs by MTT assay relative to control
Type: cell-based
conditionNotes: mda-mb-435, 24 h
Reply with just the number (in %).

Here is how some molecules turned out for mortality.
CCCCCCCCCCCCCCCCCC(Cc1ccccn1)OC (configuration not stated)    0
CCCCCCCCCCCCCCCCC[C@H](C[C@@H]1C=CCCN1C)OC(C)=O    5
CCCCCCCC/C=C\CCCCCCCC(O)Cc1ccccn1 (configuration not stated)    20
CCCCCCCCCCCCCCCCC[C@@H](O)C[C@@H]1CCCCN1C    0
CCCCCCCC/C=C\CCCCCCCC(Cc1ccccn1)OC (configuration not stated)    20

Task item: Please supply the value of reported mortality for the item CCCCCCCC/C=C\CCCCCCC[C@@H](O)C[C@@H]1C=CCCN1C
Reply: 30

Task item: Please supply the value of reported mortality for the item CCCCCCCCCCCCCCCCCCC[C@@H](O)C[C@@H]1C=CCCN1C
Reply: 20

Task item: Please supply the value of reported mortality for the item CCCCCCCCCCCCCCCCC[C@@H](O)C[C@@H]1C=CCCN1C
Reply: 0

Task item: Please supply the value of reported mortality for the item CCCCCCCCCCCCCCCCCC(O)Cc1ccccn1 (configuration not stated)
Reply: 0

Task item: Please supply the value of reported mortality for the item CCCCCCCC/C=C\CCCCCCC[C@H](O)C[C@@H]1C=CCCN1C
Reply: 30

Task item: Please supply the value of reported mortality for the item CCCCCCCCCCCCCCCCCCCC(O)Cc1ccccn1 (configuration not stated)
Reply: 20

Task item: Please supply the value of reported mortality for the item CCCCCCCCCCCCCCCCCC(Cc1cccc[n+]1C)OC.Cc1ccc(S(=O)(=O)[O-])cc1 (configuration not stated)
Reply: 30

* * *

# mortality annotations
Test system: MDA-MB-435
methodDescription: Toxicity in human MDA-MB-435 cells assessed as mortality at 3 uM measured after 24 hrs by MTT assay relative to control
Type: cell-based
conditionNotes: mda-mb-435, 24 h
Reply with just the number (in %).

Here is how some molecules turned out for mortality.
CCCCCCCC/C=C\CCCCCCC[C@H](O)C[C@@H]1C=CCCN1C    40
CCCCCCCCCCCCCCCCCCC[C@@H](O)C[C@@H]1C=CCCN1C    30

From here, focus on the item given below.
Task item: Please supply the value of reported mortality for the item CCCCCCCC/C=C\CCCCCCCC(O)Cc1ccccn1 (stereo not drawn)
Reply: 25

* * *

methodDescription: Toxicity in human MCF7 cells assessed as reduction in cell number after 48 hrs by Hoechst 33342 staining based assay
measuredQuantity: IC50 at 48 h

Here is how some molecules turned out for IC50 at 48 h.
CCCCCCCCCCCCCCCCC[C@@H](C[C@@H]1C=CCCN1C)OC(C)=O    > 25 µM
CCCCCCCCCCCCCCCCC[C@H](O)C[C@@H]1C=CCCN1C    > 25 µM

From here, focus on the item given below.
Task item: Please supply the value of reported IC50 at 48 h for the item CCCCCCCCCCCCCCCCCCC[C@H](C[C@@H]1C=CCCN1C)OC(C)=O
Reply: > 25 µM

* * *

# IC50 at 48 h annotations
methodDescription: Toxicity in human PC-3 cells assessed as reduction in cell number after 48 hrs by Hoechst 33342 staining based assay

Here is how some compounds turned out for IC50 at 48 h.
CCCCCCCCCCCCCCCCC[C@H](O)C[C@@H]1C=CCCN1C    > 25 µM
CCCCCCCCCCCCCCCCC[C@@H](O)C[C@@H]1C=CCCN1C    > 25 µM

From here, focus on the item given below.
Task item: Please supply the value of reported IC50 at 48 h for the item CCCCCCCCCCCCCCCCCCC[C@@H](O)C[C@@H]1C=CCCN1C
Reply: > 25 µM

* * *

methodDescription: Toxicity in human skin fibroblasts assessed as reduction in cell number after 48 hrs by Hoechst 33342 staining based assay
Type: tissue-based, Fibroblast
measuredQuantity: IC50 at 48 h

Here is how some compounds turned out for IC50 at 48 h.
CCCCCCCCCCCCCCCCCCC[C@H](O)C[C@@H]1C=CCCN1C    > 25 µM
CCCCCCCCCCCCCCCCCCC[C@H](C[C@@H]1C=CCCN1C)OC(C)=O    > 25 µM

Task item: Please supply the value of reported IC50 at 48 h for the item CCCCCCCCCCCCCCCCC[C@@H](O)C[C@@H]1C=CCCN1C
Reply: > 25 µM

Task item: Please supply the value of reported IC50 at 48 h for the item CCCCCCCCCCCCCCCCC[C@H](O)C[C@@H]1C=CCCN1C
Reply: > 25 µM

Task item: Please supply the value of reported IC50 at 48 h for the item CCCCCCCCCCCCCCCCCCC[C@@H](O)C[C@@H]1C=CCCN1C
Reply: > 25 µM
